Where these numbers come from: patent US12435087B2

target: DCN1 (DCUND1) protein PONY domain (Homo sapiens (Human), UniProt Q96GG9); experiment: TR-FRET assay (binding to DCN-1, displacement of FAM-labeled probe); conditions: TR FRET IC50 1 hr (nM), 1 hr after treatment with compound
Sequence (Q96GG9 60-248): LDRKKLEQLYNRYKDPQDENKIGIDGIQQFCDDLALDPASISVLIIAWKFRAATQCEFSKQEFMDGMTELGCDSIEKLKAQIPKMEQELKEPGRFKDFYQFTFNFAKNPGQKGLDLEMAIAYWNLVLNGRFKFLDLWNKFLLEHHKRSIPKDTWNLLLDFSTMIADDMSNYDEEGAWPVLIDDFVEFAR
Examples of compounds with documented IC50 follow.

Below, each entry is followed by its recorded IC50 result.
C=C(CN1CCC1)C(=O)NCc1cccc([C@H]2c3c(C)nn(-c4ccccc4)c3N(CC)C(=O)[C@@H]2NC(=O)c2cccc(C(F)(F)F)c2)c1	200 to 1000 nM
C=C(CO)C(=O)NCc1cccc([C@H]2c3cnn(-c4ccccc4)c3N(CC)C(=O)[C@@H]2NC(=O)c2cccc(C(F)(F)F)c2)c1	1000 to 3000 nM
CCN1C(=O)[C@@H](NC(=O)c2cccc(C(F)(F)F)c2)[C@H](c2cccc(CNC(=O)C(C)Cl)c2)c2cnn(-c3ccccc3)c21 (mixture of isomers)	1000 to 3000 nM
C/C=C(\CN1CCN(C2COC2)CC1)C(=O)Nc1cccc([C@@H]2c3c(C)nn(-c4ccccc4)c3N(CC)C(=O)[C@H]2NC(=O)c2nccc(C(F)(F)F)n2)c1 (racemic)	≤ 200 nM

Problem: Recorded IC50 for CCN1C(=O)[C@@H](NC(=O)c2nccc(C(F)(F)F)n2)[C@H](c2cccc(NC(=O)C3=CCC3)n2)c2cnn(-c3ccccc3)c21 (racemic) , please?
Result: 1000 to 3000 nM

Problem: Recorded IC50 for C=C(CN1CCC1)C(=O)NCc1cccc([C@H]2c3cnn(-c4ccccc4)c3N(CC)C(=O)[C@@H]2NC(=O)c2cccc(C(F)(F)F)c2)c1 , please?
Result: 1000 to 3000 nM

Problem: Recorded IC50 for CCN1C(=O)[C@@H](NC(=O)c2cccc(C(F)(F)F)c2)[C@H](c2cccc(NC(=O)C3=CCCN(C)C3)c2)c2cnn(-c3ccccc3)c21 (racemic) , please?
Result: 1000 to 3000 nM

Problem: Recorded IC50 for CCN1C(=O)[C@@H](NC(=O)c2cccc(C(F)(F)F)c2)[C@H](c2cccc(NC(=O)C3=CCC3)c2)c2c(C)nn(-c3ccccc3)c21 , please?
Result: 1000 to 3000 nM

Problem: Recorded IC50 for CCN1C(=O)[C@H](NC(=O)c2cccc(C(F)(F)F)c2)[C@@H](c2cccc(NC(=O)/C(C#N)=C/C(C)C)c2)c2c(C)nn(-c3ccccc3)c21 (racemic) , please?
Result: ≤ 200 nM

Problem: Recorded IC50 for C/C=C(/CN1CCOCC1)C(=O)NCc1cccc([C@@H]2c3cnn(-c4ccccc4)c3N(CC)C(=O)[C@H]2NC(=O)c2ccn(C3CC3)n2)c1 , please?
Result: 1000 to 3000 nM

Problem: Recorded IC50 for C/C=C(\CN1CCN(C2COC2)CC1)C(=O)NCc1cccc([C@@H]2c3cnn(-c4ccccc4)c3N(CC)C(=O)[C@H]2NC(=O)c2ccn(C3CC3)n2)c1 , please?
Result: 200 to 1000 nM
